Numbers sourced from paper PMC5778602.

ASSAY_SYSTEM: T1, CstF-64 RRM (Homo sapiens, UniProt P33240 16-94)
T1 sequence: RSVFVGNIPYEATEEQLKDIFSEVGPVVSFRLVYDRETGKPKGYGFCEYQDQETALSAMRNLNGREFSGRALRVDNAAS
METHOD: ITC
TEST_READOUT: Kd

What value of Kd has been reported for the following binder? GUGUGUGUGUGUGU (ssRNA) [GU14] ~2.5 µM
